target: CYP2C9 (Homo sapiens)
Sequence (P11712 whole entry): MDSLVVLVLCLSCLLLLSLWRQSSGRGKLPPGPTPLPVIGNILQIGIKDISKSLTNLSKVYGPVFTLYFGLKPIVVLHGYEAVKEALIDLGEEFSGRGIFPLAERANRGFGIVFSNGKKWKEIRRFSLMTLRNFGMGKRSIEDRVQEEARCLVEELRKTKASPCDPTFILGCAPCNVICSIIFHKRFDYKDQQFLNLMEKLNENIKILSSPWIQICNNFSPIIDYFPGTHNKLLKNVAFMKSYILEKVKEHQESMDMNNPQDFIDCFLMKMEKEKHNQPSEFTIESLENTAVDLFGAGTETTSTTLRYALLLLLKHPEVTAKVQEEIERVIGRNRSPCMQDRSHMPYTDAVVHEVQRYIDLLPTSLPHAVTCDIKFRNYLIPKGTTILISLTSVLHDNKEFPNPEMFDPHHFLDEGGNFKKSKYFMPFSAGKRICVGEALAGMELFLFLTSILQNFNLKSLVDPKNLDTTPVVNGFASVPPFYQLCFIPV
pIC50: −log10 of the molar value.
Value Type: pIC50

Please report pIC50 with CYP2C9 (Homo sapiens) for item O=C(COc1ccc(Cl)c(F)c1)N[C@H]1CC[C@H](c2nnc(N3CC(OC(F)(F)F)C3)o2)CC1 [Compound 6] .
< 5.00

* * *

assay: Pharmacokinetic evaluation in mice; type: in vivo; details: plasma; mouse PO (30 mg/kg) vs IV (1 mg/kg)
Value Type: bioavailability (%)
Write the number in % without appending the unit.

Tell us which bioavailability value is on record for O=C(COc1ccc(Cl)c(F)c1)N[C@H]1CC[C@H](c2nnc(N3CC(OC(F)(F)F)C3)o2)CC1
161

* * *

target: UniProtKB P33261
Sequence (P33261 whole entry): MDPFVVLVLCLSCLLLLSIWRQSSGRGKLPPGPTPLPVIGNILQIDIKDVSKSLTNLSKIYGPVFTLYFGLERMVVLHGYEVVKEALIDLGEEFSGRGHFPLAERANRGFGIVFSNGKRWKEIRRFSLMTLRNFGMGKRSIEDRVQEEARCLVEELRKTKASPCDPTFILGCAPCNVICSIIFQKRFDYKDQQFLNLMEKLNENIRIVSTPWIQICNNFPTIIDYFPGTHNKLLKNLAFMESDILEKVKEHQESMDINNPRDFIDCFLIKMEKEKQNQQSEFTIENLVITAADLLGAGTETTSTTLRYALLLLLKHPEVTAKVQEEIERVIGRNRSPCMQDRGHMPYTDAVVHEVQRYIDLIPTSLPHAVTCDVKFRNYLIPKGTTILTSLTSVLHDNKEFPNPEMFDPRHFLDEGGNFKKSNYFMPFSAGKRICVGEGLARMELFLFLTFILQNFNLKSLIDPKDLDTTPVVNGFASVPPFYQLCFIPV
pIC50: −log10 of the molar value.
Value Type: pIC50

For the molecule O=C(COc1ccc(Cl)c(F)c1)N[C@H]1CC[C@H](c2nnc(N3CC(OC(F)(F)F)C3)o2)CC1 [Compound 6] , give its measured pIC50 value.
< 5.00

* * *

assay: Pharmacokinetic evaluation in mice; assay type: in vivo; conditions: plasma; mouse IV (1 mg/kg)
Value Type: AUC(0-inf)
Hi, when you answer, please include the unit after the number. Thanks!

Tell me its AUC(0-inf) given O=C(COc1ccc(Cl)c(F)c1)N[C@H]1CC[C@H](c2nnc(N3CC(OC(F)(F)F)C3)o2)CC1 [Compound 6] as the entry.
11400 ng·h/mL

* * *

Target: CYP1A2 (Homo sapiens)
Sequence (P05177 1-516): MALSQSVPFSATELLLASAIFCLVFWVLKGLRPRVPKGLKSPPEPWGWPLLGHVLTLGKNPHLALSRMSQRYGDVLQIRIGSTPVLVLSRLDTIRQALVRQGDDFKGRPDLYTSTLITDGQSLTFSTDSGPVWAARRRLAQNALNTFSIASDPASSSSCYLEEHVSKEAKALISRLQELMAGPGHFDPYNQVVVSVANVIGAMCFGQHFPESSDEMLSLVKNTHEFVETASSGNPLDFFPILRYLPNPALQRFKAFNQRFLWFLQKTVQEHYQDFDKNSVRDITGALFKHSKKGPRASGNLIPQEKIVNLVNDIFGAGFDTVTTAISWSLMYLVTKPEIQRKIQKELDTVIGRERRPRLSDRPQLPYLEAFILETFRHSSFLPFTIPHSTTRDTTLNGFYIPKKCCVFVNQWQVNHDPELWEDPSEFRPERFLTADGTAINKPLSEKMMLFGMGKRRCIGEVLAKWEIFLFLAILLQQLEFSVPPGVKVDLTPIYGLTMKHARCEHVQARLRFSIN
pIC50: −log10 of the molar value.
Value Type: pIC50

Provide pIC50 value for the following molecule: O=C(COc1ccc(Cl)c(F)c1)N[C@H]1CC[C@H](c2nnc(N3CC(OC(F)(F)F)C3)o2)CC1
< 5.00

* * *

assay: Pharmacokinetic evaluation in mice; assay type: in vivo; conditions: plasma; mouse IV (1 mg/kg)
Value Type: C0 (ng/mL)
Entry rule: numbers only, all in ng/mL.

Give me measured C0, please, for this compound: O=C(COc1ccc(Cl)c(F)c1)N[C@H]1CC[C@H](c2nnc(N3CC(OC(F)(F)F)C3)o2)CC1
1240

* * *

assay: Kinetic solubility evaluation; format: physicochemical; settings: FeSSIF buffer (fed-state simulated intestinal fluid), fessif, kinetic from dmso stock; fed-state simulated intestinal fluid (pH=5.0), 37° C.
Value Type: solubility at 1.5 h

For O=C(COc1ccc(Cl)c(F)c1)N[C@H]1CC[C@H](c2nnc(N3CC(OC(F)(F)F)C3)o2)CC1 , write its solubility at 1.5 h.
> 80 µg/mL

* * *

assay: Cell membrane permeability (A to B / B to A, efflux ratio); type: in vitro ADME
Value Type: efflux ratio at 120 min, 10 µM
Answer field: number only, no words.

O=C(COc1ccc(Cl)c(F)c1)N[C@H]1CC[C@H](c2nnc(N3CC(OC(F)(F)F)C3)o2)CC1    0.71

Attention now turns to another entry.
Supply reported efflux ratio at 120 min, 10 µM belonging to this molecule: C[C@H]1O[C@@H](O[C@H]2[C@@H](O)C[C@H](O[C@H]3[C@@H](O)C[C@H](O[C@H]4CC[C@@]5(C)[C@H](CC[C@@H]6[C@@H]5C[C@@H](O)[C@]5(C)[C@@H](C7=CC(=O)OC7)CC[C@]65O)C4)O[C@@H]3C)O[C@@H]2C)C[C@H](O)[C@@H]1O [Digoxin, reference compound]
44.1

* * *

experiment: Pharmacokinetic evaluation in mice; type: in vivo; conditions: plasma; mouse PO (30 mg/kg)
Value Type: half-life (min)
Please reply with the bare figure in min and do not write the unit itself.

Given O=C(COc1ccc(Cl)c(F)c1)N[C@H]1CC[C@H](c2nnc(N3CC(OC(F)(F)F)C3)o2)CC1 , respond with its half-life.
187

* * *

target: CYP2D6 (Homo sapiens, UniProt P10635)
Sequence (P10635 whole entry): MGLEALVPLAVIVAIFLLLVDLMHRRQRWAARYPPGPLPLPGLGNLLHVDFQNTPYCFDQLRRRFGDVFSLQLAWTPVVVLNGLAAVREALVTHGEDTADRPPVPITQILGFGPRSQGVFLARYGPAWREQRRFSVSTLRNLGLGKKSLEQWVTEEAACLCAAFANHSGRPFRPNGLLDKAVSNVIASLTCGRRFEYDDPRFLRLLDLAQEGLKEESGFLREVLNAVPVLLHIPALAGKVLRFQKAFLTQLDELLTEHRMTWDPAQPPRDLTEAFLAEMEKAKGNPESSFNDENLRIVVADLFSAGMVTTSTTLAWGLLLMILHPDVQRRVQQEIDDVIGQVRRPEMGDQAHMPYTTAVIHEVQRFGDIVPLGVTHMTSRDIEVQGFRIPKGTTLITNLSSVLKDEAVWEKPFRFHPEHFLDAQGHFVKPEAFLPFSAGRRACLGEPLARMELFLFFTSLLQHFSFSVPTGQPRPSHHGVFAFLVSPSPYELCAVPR
Value Type: IC50

Fill in IC50 for O=C(COc1ccc(Cl)c(F)c1)N[C@H]1CC[C@H](c2nnc(N3CC(OC(F)(F)F)C3)o2)CC1 [Compound 6] tested with CYP2D6 (Homo sapiens, UniProt P10635).
> 30 µM

* * *

assay: Pharmacokinetic evaluation in mice; type: in vivo; details: plasma; mouse IV (1 mg/kg); read-out: Vss
Value Type: Vd (L/kg)
Give the value, in units of L/kg, as a plain number.

Look up and state reported Vd for O=C(COc1ccc(Cl)c(F)c1)N[C@H]1CC[C@H](c2nnc(N3CC(OC(F)(F)F)C3)o2)CC1 [Compound 6]
0.707

* * *

assay: Kinetic solubility evaluation; assay type: physicochemical; settings: FaSSIF buffer (fasted-state simulated intestinal fluid), fassif, kinetic from dmso stock; fasted-state simulated intestinal fluid (pH=6.5), 37° C.
Value Type: solubility at 1.5 h

Look up and report measured solubility at 1.5 h for this entry: O=C(COc1ccc(Cl)c(F)c1)N[C@H]1CC[C@H](c2nnc(N3CC(OC(F)(F)F)C3)o2)CC1 [Compound 6]
> 10 µg/mL

* * *

experiment: In vitro liver microsome stability; format: in vitro ADME; conditions: liver microsomes, NADPH, 37° C.
Value Type: half-life at 1 µM (min)
Just the number in min, nothing appended.

// Input: O=C(c1ccc(F)cc1)C1CCN(CCn2c(=O)[nH]c3ccccc3c2=O)CC1 [Ketanserin, reference compound] . Output its half-life at 1 µM only.
36.8

* * *

assay: Pharmacokinetic evaluation in mice; assay type: in vivo; conditions: plasma; mouse PO (30 mg/kg)
Value Type: AUC(0-inf) (µg·h/mL)
Express it in µg·h/mL; write the number only.

Report AUC(0-inf), nothing else, for this compound: O=C(COc1ccc(Cl)c(F)c1)N[C@H]1CC[C@H](c2nnc(N3CC(OC(F)(F)F)C3)o2)CC1
516

* * *

assay: Pharmacokinetic evaluation in mice; type: in vivo; settings: plasma; mouse IV (1 mg/kg)
Value Type: half-life (h)
Numbers only here, please. The scale is h.

# return recorded half-life for input O=C(COc1ccc(Cl)c(F)c1)N[C@H]1CC[C@H](c2nnc(N3CC(OC(F)(F)F)C3)o2)CC1 [Compound 6]
6.35

* * *

molecular target: CYP3A4 (Homo sapiens, UniProt P08684)
Sequence (P08684 whole entry): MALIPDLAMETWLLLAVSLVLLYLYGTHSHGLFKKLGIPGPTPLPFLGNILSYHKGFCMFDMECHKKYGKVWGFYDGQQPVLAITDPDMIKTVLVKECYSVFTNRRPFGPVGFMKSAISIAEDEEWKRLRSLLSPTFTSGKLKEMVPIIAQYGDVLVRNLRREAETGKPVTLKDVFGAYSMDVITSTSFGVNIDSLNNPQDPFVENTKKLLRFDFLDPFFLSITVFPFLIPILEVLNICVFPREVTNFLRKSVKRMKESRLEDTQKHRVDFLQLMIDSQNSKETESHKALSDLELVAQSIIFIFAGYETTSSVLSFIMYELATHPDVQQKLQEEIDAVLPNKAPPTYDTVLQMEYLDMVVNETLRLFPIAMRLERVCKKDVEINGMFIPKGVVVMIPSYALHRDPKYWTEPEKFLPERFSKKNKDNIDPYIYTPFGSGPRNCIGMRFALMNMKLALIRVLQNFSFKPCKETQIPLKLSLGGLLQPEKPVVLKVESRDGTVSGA
pIC50: −log10 of the molar value.
Value Type: pIC50

Retrieve pIC50 on CYP3A4 (Homo sapiens, UniProt P08684); query O=C(COc1ccc(Cl)c(F)c1)N[C@H]1CC[C@H](c2nnc(N3CC(OC(F)(F)F)C3)o2)CC1 [Compound 6]
< 4.52
